# Tested on: Human immunodeficiency virus 1
# test: Antiviral activity against HIV1 JRFL infected in human HeLa cells expressing CD4 and CCR5 assessed as inhibition of single-cycle viral replication by luciferase reporter gene assay
# Type: functional, organism-based
# condition-label: Human immunodeficiency virus 1, JRFL
Each entry below carries its recorded pEC50.
Quick note: pEC50 means taking -log10 of the concentration in moles per liter.

Previously resolved entries follow.
INSERT INTO measurements (record_smiles, quantity, obs_value) VALUES
  ('CNC(=O)c1ccc(OC)c2c(C(=O)C(=O)N3CCN(C(=O)c4ccccc4)CC3)c[nH]c12', 'pEC50', 9.12),
  ('COc1ncc(OC)c2c(C(=O)C(=O)N3CCN(C(=O)c4ccccc4)CC3)c[nH]c12', 'pEC50', 9.12);

Query string: For the compound O=C(NCCc1cc2ccccc2[nH]1)c1ccc(F)c2c(C(=O)C(=O)N3CCN(C(=O)c4ccccc4)CC3)c[nH]c12 , give its reported pEC50.
Result string: 8.97

Query string: Check the records and state pEC50 for Cc1cc(NC(=O)c2ccc(F)c3c(C(=O)C(=O)N4CCN(C(=O)c5ccccc5)CC4)c[nH]c23)on1
Result string: 9.03

Query string: Item CNC(=O)c1ccc(F)c2c(C(=O)C(=O)N3CCN(C(=O)c4ccccc4)C[C@H]3C)c[nH]c12 : provide pEC50
Result string: 9.12

Query string: Give recorded pEC50. O=C(C(=O)N1CCN(C(=O)c2ccccc2)CC1)c1c[nH]c2cccc(F)c12
Result string: 8.91
